Data credit: ChEMBL document CHEMBL3351720

assay: Plasma protein binding in mouse at 10 uM by LC-MS analysis; type: ADME, cell-free; conditions: read-out: PPB (converted)
Each entry below carries its reported fraction unbound at 10 µM.

Completed entries (count: 3):
Sample Smiles | Result
CN(C)S(=O)(=O)c1cccc(-n2sc3ccccc3c2=O)c1 | 0.659
O=C(O)c1cccc(-n2sc3ccccc3c2=O)c1 | 0.699
COC(=O)c1cccc(-n2sc3ccccc3c2=O)c1 | 0.624

Inquiry: Looking for the measured fraction unbound at 10 µM of "CN(C)C(=O)c1cccc(-n2sc3ccccc3c2=O)c1" , can you help?
Reply text: 0.533

---

Each entry below carries its reported fraction unbound at 1 µM.
assay: Plasma protein binding in mouse at 1 uM by LC-MS analysis; assay type: ADME, cell-free; conditions: read-out: PPB (converted)
Give the figure by itself; no unit, no explanation.

Completed entries (count: 3):
Sample Smiles | Result Type | Readout Number
CN(C)C(=O)c1cccc(-n2sc3ccccc3c2=O)c1 | fraction unbound at 1 µM | 0.52
COC(=O)c1cccc(-n2sc3ccccc3c2=O)c1 | fraction unbound at 1 µM | 0.52
O=C(O)c1cccc(-n2sc3ccccc3c2=O)c1 | fraction unbound at 1 µM | 0.812

The record that follows has no fraction unbound at 1 µM shown yet.
Inquiry: Looking for the measured fraction unbound at 1 µM of "CN(C)S(=O)(=O)c1cccc(-n2sc3ccccc3c2=O)c1" , can you help?
Reply text: 0.644

---

test: Inhibition of Streptococcus pneumoniae diphosphomevalonate decarboxylase assessed as conversion of (R)-5-diphosphomevalonate to ADP by fluorometry
Result Type: pIC50
Reminder that pIC50 means the negative base-10 logarithm of the concentration expressed in mol/L.

Inquiry: Looking for the measured pIC50 of "CN(C)C(=O)c1cccc(-n2sc3ccccc3c2=O)c1" , can you help?
Reply text: 4.62

---

assay: Metabolic stability in mouse plasma assessed as compound remaining at 1:1 1 x pH7.4 PBS measured at 3 hrs by LC-MS/MS analysis; assay type: ADME, cell-free; conditions: pH 7.4, read-out: Stability
Result Type: remaining at 3 h (%)
Express the result in % but write the number alone.

Completed entries (count: 3):
Sample Smiles | Unit Label | Readout Number
COC(=O)c1cccc(-n2sc3ccccc3c2=O)c1 | % | 55.2
CN(C)C(=O)c1cccc(-n2sc3ccccc3c2=O)c1 | % | 56.9
CN(C)S(=O)(=O)c1cccc(-n2sc3ccccc3c2=O)c1 | % | 40

Inquiry: Looking for the measured remaining at 3 h of "O=C(O)c1cccc(-n2sc3ccccc3c2=O)c1" , can you help?
Reply text: 71.2

---

assay: Aqueous solubility of the compound in pH 6.2 pION buffer by UV kinetic solubility method; format: physicochemical
Result Type: solubility kinetic

Completed entries (count: 3):
Sample Smiles | solubility kinetic
CN(C)S(=O)(=O)c1cccc(-n2sc3ccccc3c2=O)c1 | 24.6 µg/mL
CN(C)C(=O)c1cccc(-n2sc3ccccc3c2=O)c1 | > 30 µg/mL
O=C(O)c1cccc(-n2sc3ccccc3c2=O)c1 | > 27 µg/mL

The record that follows has no solubility kinetic shown yet.
Inquiry: Looking for the measured solubility kinetic of "COC(=O)c1cccc(-n2sc3ccccc3c2=O)c1" , can you help?
Reply text: 18.9 µg/mL

---

Each entry below carries its reported remaining at 3 h.
assay: Metabolic stability in mouse plasma assessed as compound remaining at 1 x pH7.4 PBS measured at 3 hrs by LC-MS/MS analysis; format: ADME, cell-free; details: pH 7.4, read-out: Stability

Sample Smiles | remaining at 3 h
O=C(O)c1cccc(-n2sc3ccccc3c2=O)c1 | 100%
COC(=O)c1cccc(-n2sc3ccccc3c2=O)c1 | 59.6%

Inquiry: Looking for the measured remaining at 3 h of "CN(C)S(=O)(=O)c1cccc(-n2sc3ccccc3c2=O)c1" , can you help?
Reply text: 65.3%

Inquiry: Record: "CN(C)C(=O)c1cccc(-n2sc3ccccc3c2=O)c1"
Reply text: 76.2%

---

molecular target: Ectonucleotide pyrophosphatase/phosphodiesterase family member 1 (Homo sapiens, UniProt P22413)
Sequence (P22413 whole entry): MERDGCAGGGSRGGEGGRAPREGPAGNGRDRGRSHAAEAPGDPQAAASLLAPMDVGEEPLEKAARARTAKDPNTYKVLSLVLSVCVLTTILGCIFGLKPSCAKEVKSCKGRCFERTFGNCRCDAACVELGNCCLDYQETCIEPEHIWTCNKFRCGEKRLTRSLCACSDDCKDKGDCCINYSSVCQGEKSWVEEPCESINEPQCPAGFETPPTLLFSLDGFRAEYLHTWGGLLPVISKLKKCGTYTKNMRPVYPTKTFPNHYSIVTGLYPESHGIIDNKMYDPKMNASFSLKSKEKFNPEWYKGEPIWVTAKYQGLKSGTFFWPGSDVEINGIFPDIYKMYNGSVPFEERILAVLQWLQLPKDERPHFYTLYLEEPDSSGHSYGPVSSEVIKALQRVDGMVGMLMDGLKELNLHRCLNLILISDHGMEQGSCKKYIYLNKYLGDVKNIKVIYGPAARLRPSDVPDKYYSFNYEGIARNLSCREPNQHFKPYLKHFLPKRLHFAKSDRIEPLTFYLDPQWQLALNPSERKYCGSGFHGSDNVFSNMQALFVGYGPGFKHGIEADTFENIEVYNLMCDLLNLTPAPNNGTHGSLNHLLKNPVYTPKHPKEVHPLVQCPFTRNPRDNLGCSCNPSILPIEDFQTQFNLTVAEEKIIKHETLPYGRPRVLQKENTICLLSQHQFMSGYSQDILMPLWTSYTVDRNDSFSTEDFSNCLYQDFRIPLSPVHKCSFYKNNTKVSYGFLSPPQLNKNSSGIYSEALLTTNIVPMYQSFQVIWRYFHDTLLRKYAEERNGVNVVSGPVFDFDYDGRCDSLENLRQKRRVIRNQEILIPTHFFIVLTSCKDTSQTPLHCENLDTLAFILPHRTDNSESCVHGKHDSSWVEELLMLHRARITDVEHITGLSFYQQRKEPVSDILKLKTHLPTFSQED
Result Type: IC50

Inquiry: Looking for the measured IC50 of "CN(C)C(=O)c1cccc(-n2sc3ccccc3c2=O)c1" , can you help?
Reply text: > 30 µM

---

Each entry below carries its reported solubility kinetic.
assay: Aqueous solubility of the compound in pH 7.4 pION buffer by UV kinetic solubility method; type: physicochemical
Express the result in µg/mL but write the number alone.

Sample Smiles | solubility kinetic, µg/mL
COC(=O)c1cccc(-n2sc3ccccc3c2=O)c1 | 20.8

The record that follows has no solubility kinetic shown yet.
Inquiry: Looking for the measured solubility kinetic of "CN(C)S(=O)(=O)c1cccc(-n2sc3ccccc3c2=O)c1" , can you help?
Reply text: 23.8

---

assay: Metabolic stability in mouse liver microsomes measured at 1 uM after 1 hr at pH 7.4 by LC-MS/MS analysis; format: ADME; details: read-out: Stability
Each entry below carries its reported remaining at 1 h, 1 µM.
Express the result in % but write the number alone.

Sample Smiles | Unit Label | Readout Number
O=C(O)c1cccc(-n2sc3ccccc3c2=O)c1 | % | 100
CN(C)C(=O)c1cccc(-n2sc3ccccc3c2=O)c1 | % | 56.6
COC(=O)c1cccc(-n2sc3ccccc3c2=O)c1 | % | 45.9

Inquiry: Looking for the measured remaining at 1 h, 1 µM of "CN(C)S(=O)(=O)c1cccc(-n2sc3ccccc3c2=O)c1" , can you help?
Reply text: 100

---

Molecular target: Phosphomannomutase 2 (Homo sapiens, UniProt O15305)
Sequence (O15305 whole entry): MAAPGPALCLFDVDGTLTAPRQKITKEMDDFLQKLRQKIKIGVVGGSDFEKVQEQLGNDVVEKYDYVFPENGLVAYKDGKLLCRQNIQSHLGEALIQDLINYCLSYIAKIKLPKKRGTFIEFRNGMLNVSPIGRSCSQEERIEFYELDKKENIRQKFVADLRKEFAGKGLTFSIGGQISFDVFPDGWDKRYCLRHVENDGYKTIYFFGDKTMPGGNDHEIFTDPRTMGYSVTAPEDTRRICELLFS
Result Type: IC50

Sample Smiles | IC50
O=c1c2ccccc2sn1-c1ccc(F)c(Cl)c1 | > 100 µM
Cc1cccc(-n2sc3cc(F)ccc3c2=O)c1C | > 20 µM
COc1ccc(-n2sc3cc(F)ccc3c2=O)cc1 | > 10 µM
Cc1ccc(-n2sc3ccccc3c2=O)cc1S(=O)(=O)N1CCCCC1 | 11 µM
Cc1ccc(-n2sc3ccccc3c2=O)cc1 | > 30 µM

Inquiry: Looking for the measured IC50 of "O=c1c2ccccc2sn1-c1ccc(F)cc1" , can you help?
Reply text: > 20 µM

Inquiry: Record: "O=c1c2ccc(F)cc2sn1-c1ccc(F)cc1"
Reply text: > 50 µM

Inquiry: Record: "O=c1c2ccccc2sn1-c1cccc(Cl)c1"
Reply text: > 30 µM

Inquiry: Record: "COC(=O)c1cccc(-n2sc3ccccc3c2=O)c1"
Reply text: 12 µM

Inquiry: Record: "Cc1cccc(-n2sc3ccccc3c2=O)c1"
Reply text: > 20 µM

Inquiry: Record: "CN(C)c1ccc(-n2sc3ccccc3c2=O)cc1"
Reply text: > 30 µM

Inquiry: Record: "O=c1c2ccc(F)cc2sn1-c1ccccc1"
Reply text: > 50 µM

Inquiry: Record: "O=c1c2ccccc2sn1-c1ccc(Cl)c(S(=O)(=O)N2CCOCC2)c1"
Reply text: 63 µM

Inquiry: Record: "Cc1ccc(C)c(-n2sc3ccccc3c2=O)c1"
Reply text: > 20 µM

Inquiry: Record: "CCOC(=O)c1ccc(-n2sc3ccccc3c2=O)cc1"
Reply text: > 50 µM

Inquiry: Record: "CCN(CC)S(=O)(=O)c1cccc(-n2sc3ccccc3c2=O)c1"
Reply text: > 100 µM

---

experiment: Plasma protein binding in human at 1 uM by LC-MS analysis; type: ADME, cell-free; details: read-out: PPB (converted)
Result Type: fraction unbound at 1 µM
Give the figure by itself; no unit, no explanation.

Sample Smiles | Readout Number
COC(=O)c1cccc(-n2sc3ccccc3c2=O)c1 | 0.588

The record that follows has no fraction unbound at 1 µM shown yet.
Inquiry: Looking for the measured fraction unbound at 1 µM of "CN(C)C(=O)c1cccc(-n2sc3ccccc3c2=O)c1" , can you help?
Reply text: 0.587

---

test: Metabolic stability in human plasma assessed as compound remaining at 1:1 1 x pH7.4 PBS measured at 3 hrs by LC-MS/MS analysis; type: ADME, cell-free; settings: pH 7.4, read-out: Stability
Result Type: remaining at 3 h (%)
Express the result in % but write the number alone.

Completed entries (count: 3):
Sample Smiles | Unit Label | Readout Number
O=C(O)c1cccc(-n2sc3ccccc3c2=O)c1 | % | 55.5
CN(C)C(=O)c1cccc(-n2sc3ccccc3c2=O)c1 | % | 60
COC(=O)c1cccc(-n2sc3ccccc3c2=O)c1 | % | 49.3

The record that follows has no remaining at 3 h shown yet.
Inquiry: Looking for the measured remaining at 3 h of "CN(C)S(=O)(=O)c1cccc(-n2sc3ccccc3c2=O)c1" , can you help?
Reply text: 32.3
